Give pKi for every item shown.
Tested Target: 5-hydroxytryptamine receptor 6 (Homo sapiens)
Sequence (P50406 whole entry): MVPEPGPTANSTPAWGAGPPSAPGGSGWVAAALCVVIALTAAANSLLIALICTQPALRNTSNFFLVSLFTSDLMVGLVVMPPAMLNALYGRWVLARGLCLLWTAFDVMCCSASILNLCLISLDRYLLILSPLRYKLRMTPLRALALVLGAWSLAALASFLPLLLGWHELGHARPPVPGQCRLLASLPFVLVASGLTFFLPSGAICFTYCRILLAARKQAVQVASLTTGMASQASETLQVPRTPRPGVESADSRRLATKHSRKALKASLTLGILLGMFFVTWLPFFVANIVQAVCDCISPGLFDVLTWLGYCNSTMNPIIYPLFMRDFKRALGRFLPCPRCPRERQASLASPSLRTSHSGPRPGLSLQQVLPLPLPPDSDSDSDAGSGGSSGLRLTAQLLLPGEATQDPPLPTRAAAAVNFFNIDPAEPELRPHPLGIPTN
Answers are plain numbers, as −log10 of the molar value.

Cn1c2c(c3cccc(S(=O)(=O)c4ccccc4)c31)C1CCC(C2)N1 (racemic)    6.09

Below are some compounds; for each one, tell me its pKi.
1. CCN1C2CCC1c1c(n(C)c3ccc(S(=O)(=O)c4ccccc4)cc13)C2 (racemic)
2. Cn1c2c(c3cc(S(=O)(=O)c4cccc(F)c4)ccc31)C1CCC(C2)N1 (racemic)
3. O=S(=O)(c1ccccc1)c1ccc2[nH]c3c(c2c1)C1CCC(C3)N1 (racemic)
4. Cn1c2c(c3ccc(S(=O)(=O)c4ccccc4)cc31)C1CCC(C2)N1 (racemic)
5. Cn1ccc(S(=O)(=O)c2ccc3c(c2)c2c(n3C)CC3CCC2N3)n1 (configuration not stated)

1. 7.04
2. 8.39
3. 7.27
4. 6.88
5. 6.00
